molecular target: HLA-B*4001 (human); assay: competitive inhibition binding assay, purified HLA; details: remark: other sources report otherwise
Readout type: pIC50
Interpret pIC50 as the negative base-10 log of the concentration measured in mol/L.

Quick one: pIC50 for LEARGEAL [MAGE2-derived B44 peptide LEARGEAL, position 16] ?
7.00
